IC50 values, listed per item
# measurementTarget: HPK1 (Homo sapiens, UniProt Q92918)
# Sequence (Q92918 whole entry): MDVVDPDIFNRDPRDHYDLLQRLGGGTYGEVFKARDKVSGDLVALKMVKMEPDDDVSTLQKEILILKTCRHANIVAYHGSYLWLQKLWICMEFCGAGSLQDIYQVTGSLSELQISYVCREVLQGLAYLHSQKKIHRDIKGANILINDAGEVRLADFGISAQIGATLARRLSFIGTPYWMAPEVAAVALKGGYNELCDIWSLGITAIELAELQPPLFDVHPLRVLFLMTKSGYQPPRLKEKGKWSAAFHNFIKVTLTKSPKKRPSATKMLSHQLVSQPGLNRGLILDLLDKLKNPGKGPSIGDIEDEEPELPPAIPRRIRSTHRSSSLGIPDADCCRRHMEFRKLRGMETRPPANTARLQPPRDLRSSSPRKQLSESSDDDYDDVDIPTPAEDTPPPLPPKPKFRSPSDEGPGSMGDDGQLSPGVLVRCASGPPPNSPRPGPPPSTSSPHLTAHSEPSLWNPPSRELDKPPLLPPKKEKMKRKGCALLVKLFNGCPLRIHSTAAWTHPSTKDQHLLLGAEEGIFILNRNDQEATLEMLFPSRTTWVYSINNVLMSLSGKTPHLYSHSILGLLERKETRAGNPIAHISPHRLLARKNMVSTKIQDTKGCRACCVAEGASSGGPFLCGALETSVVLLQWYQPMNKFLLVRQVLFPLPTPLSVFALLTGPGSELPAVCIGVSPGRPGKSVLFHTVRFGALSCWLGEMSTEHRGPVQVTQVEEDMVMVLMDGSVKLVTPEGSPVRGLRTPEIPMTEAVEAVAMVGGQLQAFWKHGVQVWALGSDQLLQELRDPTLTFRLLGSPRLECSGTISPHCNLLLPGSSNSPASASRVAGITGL

Some molecules with recorded IC50:
**Q:** Given the entry O=c1[nH]ccc2nc(C3CC4CCC3C4)cc(Nc3ccc(N4CCC(O)CC4)cn3)c12 (stereo not shown) [I-40] , what IC50 was observed with HPK1 (Homo sapiens, UniProt Q92918)?
**A:** 100 to 1000 nM

**Q:** Another: O=c1[nH]ccc2nc(-c3cccc(CN4CCOCC4)c3F)cc(Nc3ccc(N4CCC(O)CC4)cn3)c12 [I-171]
**A:** 100 to 1000 nM

**Q:** Another: O=c1[nH]ccc2nc(N3CCC4(CCCNC4)CC3)cc(Nc3ccc(N4CCC(O)CC4)cn3)c12 [I-239]
**A:** 100 to 1000 nM

**Q:** Another: O=c1[nH]ccc2nc(-c3cc4c(cc3F)CCC4O)cc(Nc3ccc(N4CCC(O)CC4)cn3)c12 (stereo not shown) [I-192]
**A:** 100 to 1000 nM

**Q:** Another: O=C(Nc1ccc(-c2cc(Nc3ccc(N4CCC(O)CC4)cn3)c3c(=O)[nH]ccc3n2)c(F)c1)[C@H]1C[C@H]2CC[C@@H]1C2 (single isomer, unassigned) [I-261]
**A:** ≤ 100 nM

**Q:** Another: Cc1c[nH]c(=O)c2c(Nc3ccc(N4CCC(O)CC4)cn3)cc(-c3ccc(NC(=O)C4CCCCC4)cc3F)nc12 [I-158]
**A:** ≤ 100 nM

--- query ---
**Q:** Given the entry CCNC(=O)c1ccc(Nc2nc(-c3c(F)cccc3F)cc3nc[nH]c(=O)c23)cc1 [I-12] , what IC50 was observed with HPK1 (Homo sapiens, UniProt Q92918)?
**A:** 100 to 1000 nM
